# IC50 per entry
system: SH-SY5Y cells (containing L- and N-type Ca2+ channels); assay: Intracellular Ca2+ measurement (Fluo-4 NW), carbachol-induced increase; type: cell-based; details: Homo sapiens, carbachol 100 nM, mean ± SD, unit printed only in abstract, not in Table 2, read-out: Calcium overload-preventing activity (IC50), SH-SY5Y

Compound: CCOC(=O)C1=C(COCCNS(=O)(=O)C(F)(F)F)NC=C(C(=O)OC)C1c1ccccc1Cl (centres unmarked)
IC50: 10 µg/mL

GET /values?item= CCOC(=O)NCCOCC1=C(C(=O)OCC)C(c2ccccc2Cl)C(C(=O)OC)=CN1 (centres unmarked) &system= SH-SY5Y cells (containing L- and N-type Ca2+ channels) returns IC50: 14 µg/mL

# lookup: CCOC(=O)C1=C(COCCNS(=O)(=O)c2ccc(F)cc2)NC=C(C(=O)OC)C1c1ccccc1Cl (centres unmarked) on SH-SY5Y cells (containing L- and N-type Ca2+ channels), IC50 = 21 µg/mL

Simply: CCOC(=O)C1=C(COCCNS(=O)(=O)c2ccc(Cl)c([N+](=O)[O-])c2)NC=C(C(=O)OC)C1c1ccccc1Cl (centres unmarked) , SH-SY5Y cells (containing L- and N-type Ca2+ channels), IC50 = 15 µg/mL

Response field IC50 (SH-SY5Y cells (containing L- and N-type Ca2+ channels)) for item CCOC(=O)C1=C(COCCNS(=O)(=O)c2ccc(Br)cc2)NC=C(C(=O)OC)C1c1ccccc1Cl (centres unmarked) : 20 µg/mL

CCOC(=O)C1=C(COCCN)NC(C)=C(C(=O)OC)C1c1ccccc1Cl (centres unmarked) [Amlodipine, reference compound] on SH-SY5Y cells (containing L- and N-type Ca2+ channels) gives IC50 = 11 µg/mL

The reported IC50 value, SH-SY5Y cells (containing L- and N-type Ca2+ channels), for CCOC(=O)C1=C(COCCNS(=O)(=O)c2ccc([N+](=O)[O-])cc2)NC=C(C(=O)OC)C1c1ccccc1Cl (centres unmarked) reads 8 µg/mL

SH-SY5Y cells (containing L- and N-type Ca2+ channels) data for CCOC(=O)C1=C(COCCNC(=O)OCC(C)C)NC=C(C(=O)OC)C1c1ccccc1Cl (centres unmarked) ; its IC50: 40 µg/mL

* * *

test system: A7r5 cells; test: Cadmium cytotoxicity study (LDH release); type: cell-based, rat; details: 4 h exposure, CdCl2 alone, read-out: LC50 (CdCl2 induced cell death)
Measured property: CC50 (µM)
Form entry: value (µM) — number only.

Form: item [Cl][Cd][Cl] ; test system A7r5 cells; CC50: 30.2

Reference source: paper PMC5366925
